Just for reference, patent US9920032B2 is where these values come from.

Tested Target: UniProtKB Q9P1W9
Sequence (Q9P1W9 whole entry): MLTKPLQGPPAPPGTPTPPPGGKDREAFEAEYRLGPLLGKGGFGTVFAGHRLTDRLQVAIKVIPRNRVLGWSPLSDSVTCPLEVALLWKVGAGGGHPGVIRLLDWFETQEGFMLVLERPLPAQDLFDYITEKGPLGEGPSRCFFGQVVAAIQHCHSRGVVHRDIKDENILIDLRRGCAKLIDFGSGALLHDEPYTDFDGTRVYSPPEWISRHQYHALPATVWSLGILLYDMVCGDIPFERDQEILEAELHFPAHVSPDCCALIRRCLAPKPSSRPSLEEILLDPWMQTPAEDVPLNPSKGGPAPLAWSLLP
Experimental Endpoint: IC50

IC50 measured on C[C@@H]1C[C@H](N)C[C@H](c2ccncc2NC(=O)c2ccc(F)c3cc(N4CCN(S(=O)(=O)N(C)C)CC4)cnc23)C1 [Example 74] = 100 to 1000 nM

// field: IC50; key: C[C@@H]1C[C@H](N)C[C@H](c2ccncc2NC(=O)c2ccc(F)c3cc(N4C5CCCC4COC5)cnc23)C1 [Example 106] ; value = ≤ 100 nM

Summary for this compound, COC1CCCN(c2cnc3c(C(=O)Nc4cnccc4[C@@H]4C[C@H](C)C[C@H](N)C4)ccc(F)c3c2)C1 (stereo in doubt) [Example 12] : IC50 is 100 to 1000 nM

For reference, reported IC50 for CC1CCCCN1c1cc2c(F)ccc(C(=O)Nc3cnccc3[C@@H]3C[C@H](C)C[C@H](N)C3)c2nn1 (stereo partly shown) [Example 93] stands at ≤ 100 nM

Form: compound = C[C@@H]1C[C@H](N)C[C@H](c2ccncc2NC(=O)c2ccc(F)c3cc(Nc4ccccc4F)cnc23)C1 [Example 125] ; IC50 = ≤ 100 nM

GET /value?item= C[C@@H]1C[C@H](N)C[C@H](c2ccncc2NC(=O)c2ccc(F)c3cc(N4CCCN(C)C(=O)C4)cnc23)C1 [Example 135] &field=IC50 returns 100 to 1000 nM

The recorded IC50 for C[C@@H]1C[C@H](N)C[C@H](c2ccncc2NC(=O)c2ccc(F)c3cc(C4CC4)cnc23)C1 [Example 13] is ≤ 100 nM
